Attribution: the supplement of paper PMC7877785

test: self-splicing fitness, log relative to wild type (ln ratio); higher = more splicing; Tetrahymena group I intron in knt gene, E. coli kanamycin selection, DiMSum; sequences stand for … in CUCUCU…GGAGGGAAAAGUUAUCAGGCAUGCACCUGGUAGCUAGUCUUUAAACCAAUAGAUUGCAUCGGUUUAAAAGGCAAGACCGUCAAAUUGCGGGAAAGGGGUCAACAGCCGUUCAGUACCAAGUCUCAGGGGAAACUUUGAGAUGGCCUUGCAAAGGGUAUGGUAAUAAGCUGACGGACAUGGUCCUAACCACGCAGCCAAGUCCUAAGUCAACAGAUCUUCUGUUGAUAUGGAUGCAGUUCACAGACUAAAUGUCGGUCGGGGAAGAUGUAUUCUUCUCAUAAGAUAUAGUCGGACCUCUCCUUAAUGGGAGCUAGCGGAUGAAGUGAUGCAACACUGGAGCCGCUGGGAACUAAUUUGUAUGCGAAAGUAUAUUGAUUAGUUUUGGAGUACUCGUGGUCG; conditions: 37 °C;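 further: selection with 25 µg/mL kanamycin versus none on LB agar overnight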
Use self-splicing fitness (ln) to assign classes; range list: 0 = under -2, 1 = from -2 up to -0.5, 2 = -0.5 and over

Data request: Exercise: read the entry CUGCAGCAAUAUUACGGUUG and state which class it falls under.
Data returned: 1

Data request: Form: Item = GGACAGCAAUAUUACGCCGA ; Class = ?
Data returned: 2

Data request: Could you tell me which band CCGAAGCAAUAUUACGAUUC belongs to?
Data returned: 0

Data request: Looking at CGCUAGCAAUAUUACGAUCU , which class would you pick?
Data returned: 1

Data request: Class for UUCGAGCAAUAUUACGCCAA ?
Data returned: 0

Data request: Sort into band: CGCAAGCAAUAUUACGAAUU
Data returned: 0

Data request: Exercise: read the entry CGAAAGCAAUAUUACGUAUU and state which class it falls under.
Data returned: 1

Data request: Please classify: GCCAAGCAAUAUUACGCGGG
Data returned: 0

Data request: Which bin should I file CCUCAGCAAUAUUACGUAUC under?
Data returned: 0

Data request: State the class of the sequence shown: AGGUAGCAAUAUUACGCUCG
Data returned: 2

Data request: Form: Item = UACAAGCAAUAUUACGAGGC ; Class = ?
Data returned: 1

Data request: Form field 'band' for CUUCAGCAAUAUUACGCCAA
Data returned: 0

Data request: Band of CUAGAGCAAUAUUACGAAUG ?
Data returned: 2

Data request: Where would AGCAAGCAAUAUUACGAGGC land among the classes by reported self-splicing fitness (ln)?
Data returned: 0

Data request: Input UUGGAGCAAUAUUACGUCAG ; output its category
Data returned: 1

Data request: Form field 'band' for CUUCAGCAAUAUUACGGUUC
Data returned: 1

Data request: Each sequence maps to one class by self-splicing fitness (ln). Which class for UCUUAGCAAUAUUACGCUCU ?
Data returned: 1

Data request: Class? Entry: CUCUAGCAAUAUUACGCUCC
Data returned: 1

Data request: Returns: class label. Input: GAUCAGCAAUAUUACGACUC
Data returned: 2

Data request: Please let me know in which category the item ACUGAGCAAUAUUACGCUUG belongs.
Data returned: 0

Data request: Lab note: sort GGAAAGCAAUAUUACGGCCA into the matching self-splicing fitness (ln) band.
Data returned: 2

Data request: Form field 'band' for ACGGAGCAAUAUUACGCUCA
Data returned: 2

Data request: Class label required: GAUGAGCAAUAUUACGGCCA
Data returned: 1

Data request: Sort AGAGAGCAAUAUUACGAAAA into one of the categories.
Data returned: 1

Data request: Quick check: band for AAUGAGCAAUAUUACGACGG
Data returned: 0

Data request: The entry to classify is UGGCAGCAAUAUUACGCUUA ; which class holds it?
Data returned: 2

Data request: Entry GACGAGCAAUAUUACGGCUC belongs to which category?
Data returned: 1

Data request: Which band does GACGAGCAAUAUUACGUGUA fall in?
Data returned: 0

Data request: Which band does GGGUAGCAAUAUUACGCCGA fall in?
Data returned: 2

Data request: Form: Item = UCCAAGCAAUAUUACGCUGG ; Class = ?
Data returned: 1

Data request: # classify by self-splicing fitness (ln) band: GCGUAGCAAUAUUACGGAUU
Data returned: 1

Data request: State the band of ACAUAGCAAUAUUACGACGC
Data returned: 2

Data request: Categorize the following entry: UUGAAGCAAUAUUACGCCAG
Data returned: 2

Data request: Categorize the following entry: ACACAGCAAUAUUACGAAAC
Data returned: 1

Data request: Using the reported self-splicing fitness (ln), which band applies to GGAAAGCAAUAUUACGCAAG ?
Data returned: 1

Data request: Which self-splicing fitness (ln) band matches CUGCAGCAAUAUUACGUGUC ?
Data returned: 0

Data request: Hello team, could you let me know which band the following sequence falls into: CCUAAGCAAUAUUACGGAGA
Data returned: 1

Data request: Just checking, what class would you give CCCAAGCAAUAUUACGUUCC here?
Data returned: 0

Data request: // return the class label for AAUAAGCAAUAUUACGCCUA
Data returned: 2

Data request: Could you tell me which band GCCUAGCAAUAUUACGGGAU belongs to?
Data returned: 2

Data request: Field: class (self-splicing fitness (ln)) — entry: AACCAGCAAUAUUACGAGAG
Data returned: 0

Data request: Record AGUCAGCAAUAUUACGCUAU — which class?
Data returned: 2

Data request: The entry to classify is AGACAGCAAUAUUACGUGCA ; which class holds it?
Data returned: 2

Data request: Which self-splicing fitness (ln) category applies to GAUGAGCAAUAUUACGGUCG here?
Data returned: 2

Data request: Categorize the following entry: ACACAGCAAUAUUACGUGUU
Data returned: 0

Data request: Field: class (self-splicing fitness (ln)) — entry: AUGGAGCAAUAUUACGAGUU
Data returned: 0

Data request: Hello team, could you let me know which band the following sequence falls into: CCACAGCAAUAUUACGCGUA
Data returned: 0

Data request: Textbook exercise: identify the category of the sequence given here, GACAAGCAAUAUUACGCUCG , according to its measured value.
Data returned: 1

Data request: Determine which band this sequence sits in: GUGAAGCAAUAUUACGUAAG
Data returned: 2

Data request: // bin(item) where item = CGUCAGCAAUAUUACGGCUC
Data returned: 2

Data request: Given GAAUAGCAAUAUUACGUUAU , name the class its self-splicing fitness (ln) places it in.
Data returned: 1

Data request: Class (by measured self-splicing fitness (ln)) for CAGGAGCAAUAUUACGCGCC
Data returned: 0

Data request: Which self-splicing fitness (ln) band matches AACCAGCAAUAUUACGACUU ?
Data returned: 2

Data request: # bin lookup: classify CUUAAGCAAUAUUACGUACG by its self-splicing fitness (ln)
Data returned: 2

Data request: Form: Item = ACUAAGCAAUAUUACGCUGA ; Class = ?
Data returned: 1

Data request: Using the reported self-splicing fitness (ln), which band applies to GUUAAGCAAUAUUACGGAUC ?
Data returned: 2

Data request: // bin(item) where item = AUGUAGCAAUAUUACGCACU
Data returned: 2

Data request: Into which bin does this sequence go? CUCGAGCAAUAUUACGACCA
Data returned: 0

Data request: Please report the category associated with AAGGAGCAAUAUUACGACUG , nothing else.
Data returned: 1

Data request: Band for UGCAAGCAAUAUUACGGCGU ?
Data returned: 1

* * *

assay: self-splicing fitness, log relative to wild type (ln ratio); higher = more splicing; Tetrahymena group I intron in knt gene, E. coli kanamycin selection, DiMSum; sequences stand for … in CUCUCU…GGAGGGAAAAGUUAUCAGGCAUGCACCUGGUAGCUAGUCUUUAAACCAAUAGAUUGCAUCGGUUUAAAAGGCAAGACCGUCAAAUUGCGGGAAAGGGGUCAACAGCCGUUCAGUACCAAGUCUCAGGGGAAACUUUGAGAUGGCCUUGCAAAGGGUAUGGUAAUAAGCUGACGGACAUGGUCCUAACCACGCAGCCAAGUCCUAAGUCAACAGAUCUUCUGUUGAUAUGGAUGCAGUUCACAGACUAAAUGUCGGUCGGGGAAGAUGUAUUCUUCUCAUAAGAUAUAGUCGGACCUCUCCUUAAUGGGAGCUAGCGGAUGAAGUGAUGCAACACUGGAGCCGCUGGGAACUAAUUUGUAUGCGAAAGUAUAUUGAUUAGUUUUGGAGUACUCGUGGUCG; details: 37 °C
For each record, write down the corresponding self-splicing fitness (ln).
Field format: numeric only.

Data request: Item under review: CUUUAGCAAUAUUACGUUAG . Reported self-splicing fitness (ln)?
Data returned: -2.32

Data request: Could you share which self-splicing fitness (ln) value was measured for GUGAAGCAAUAUUACGACAG ?
Data returned: -1.25

Data request: For the sequence shown here, AGUUAGCAAUAUUACGUGAG , give the reported self-splicing fitness (ln).
Data returned: -1.86

Data request: Give the measured self-splicing fitness (ln) of UAUCAGCAAUAUUACGGGCA .
Data returned: 0.193

Data request: What does the record list as self-splicing fitness (ln) for CUGGAGCAAUAUUACGUCCU ?
Data returned: -2.56

Data request: // lookup self-splicing fitness (ln) for AUUUAGCAAUAUUACGCCGA
Data returned: -1.09

Data request: Which self-splicing fitness (ln) reading was recorded for the sequence GAACAGCAAUAUUACGAAAG ?
Data returned: -1.58

Data request: Which self-splicing fitness (ln) value belongs to UAGCAGCAAUAUUACGCGGA ?
Data returned: -0.843

Data request: Please look up its self-splicing fitness (ln): AAAAAGCAAUAUUACGCCGA
Data returned: -1.01

Data request: Reported self-splicing fitness (ln) for CCCUAGCAAUAUUACGCCGG : what is it?
Data returned: -1.6

Data request: Can you look up the measured self-splicing fitness (ln) of CGUCAGCAAUAUUACGAGGU for me?
Data returned: -3.03

Data request: Reported self-splicing fitness (ln), sequence AGAAAGCAAUAUUACGGCGC : ____
Data returned: -1.01

Data request: Given the entry CUGAAGCAAUAUUACGUGGA , report its measured self-splicing fitness (ln).
Data returned: -2.63

Data request: Data request, read-out self-splicing fitness (ln), for GAGUAGCAAUAUUACGUGCU
Data returned: -2.31

Data request: Sample UUUCAGCAAUAUUACGCCUG — what was its self-splicing fitness (ln)?
Data returned: -1.02

Data request: For CUGCAGCAAUAUUACGGUUA , what is its reported self-splicing fitness (ln)?
Data returned: -1.03

Data request: Please give the measured self-splicing fitness (ln) for this sequence: AGGGAGCAAUAUUACGCGCA
Data returned: -2.11

Data request: # get_value(readout='self-splicing fitness (ln)', item= CUUAAGCAAUAUUACGAGUC )
Data returned: -2.33

Data request: Quick check: self-splicing fitness (ln) of GUCUAGCAAUAUUACGUGUC ?
Data returned: -0.0601

Data request: // self-splicing fitness (ln) lookup, key: AACAAGCAAUAUUACGAGCC
Data returned: -2.09

Data request: Item UAGGAGCAAUAUUACGCUUA has what recorded self-splicing fitness (ln)?
Data returned: -0.834

Data request: What self-splicing fitness (ln) value was documented for this sequence, AAUAAGCAAUAUUACGAAUA ?
Data returned: -1.62

Data request: Give its self-splicing fitness (ln) value. Item: GACAAGCAAUAUUACGCGCG
Data returned: -0.467

Data request: Fill in the blank: the reported self-splicing fitness (ln) of UGCUAGCAAUAUUACGCGUU is ____.
Data returned: -0.563

Data request: Dear colleague, I am looking for the recorded self-splicing fitness (ln) of the following sequence: GCACAGCAAUAUUACGUUAG
Data returned: -1.85

Data request: # lookup: self-splicing fitness (ln) of CAAGAGCAAUAUUACGUCCU
Data returned: -2.24

Data request: I would be grateful if you could share the reported self-splicing fitness (ln) for CCCGAGCAAUAUUACGAUUU .
Data returned: -2.15

Data request: # self-splicing fitness (ln) lookup, item UGCUAGCAAUAUUACGUCCA
Data returned: -0.404

Data request: Return reported self-splicing fitness (ln); argument: UAUGAGCAAUAUUACGUUGA
Data returned: -1.25

Data request: I have this sequence here, GCAGAGCAAUAUUACGUAGC , and I need its recorded self-splicing fitness (ln).
Data returned: -2.77

Data request: Entry CGUCAGCAAUAUUACGUGAA : reported self-splicing fitness (ln) = ?
Data returned: -0.281

Data request: Need self-splicing fitness (ln), item CCUCAGCAAUAUUACGACCA
Data returned: -1.99
